The measurements presented in this section are drawn from patent US9266964.

Target: human plasma kallikrein (human, UniProt P03952 20-390; P03952 391-638)
Sequence (P03952 20-390, chain 1 of 2): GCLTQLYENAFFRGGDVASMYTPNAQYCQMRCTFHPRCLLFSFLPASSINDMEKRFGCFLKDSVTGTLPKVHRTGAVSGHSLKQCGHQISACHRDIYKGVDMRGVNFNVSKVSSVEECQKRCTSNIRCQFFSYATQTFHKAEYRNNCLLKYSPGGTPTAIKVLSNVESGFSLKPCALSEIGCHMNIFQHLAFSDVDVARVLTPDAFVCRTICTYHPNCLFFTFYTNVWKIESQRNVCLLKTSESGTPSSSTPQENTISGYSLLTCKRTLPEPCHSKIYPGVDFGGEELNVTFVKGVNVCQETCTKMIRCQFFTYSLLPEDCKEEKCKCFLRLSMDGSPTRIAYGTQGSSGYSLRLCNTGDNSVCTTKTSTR
Sequence (P03952 391-638, chain 2 of 2): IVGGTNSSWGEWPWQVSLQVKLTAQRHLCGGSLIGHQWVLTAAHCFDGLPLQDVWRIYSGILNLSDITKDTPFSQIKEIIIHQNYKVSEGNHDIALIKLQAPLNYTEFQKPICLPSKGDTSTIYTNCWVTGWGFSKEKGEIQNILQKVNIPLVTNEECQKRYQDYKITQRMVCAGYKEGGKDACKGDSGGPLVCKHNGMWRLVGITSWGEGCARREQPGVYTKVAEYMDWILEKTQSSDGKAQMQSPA
Assay: cell-based or functional assay

binder	u	% inhibition at 10 nM
M210-G10 (Fab, V domains shown, Tested as Fab; printed HC runs into CH1) VH: EVQLLESGGGLVQPGGSLRLSCAASGFTFSHYLMTWVRQAPGKGLEWVSYISPSGGHTIYADSVKGRFTISRDNSKNTLYLQMNSLRAEDTAVYYCARVARGIAARSRTSYLDFWGQGTLVTVSS VL: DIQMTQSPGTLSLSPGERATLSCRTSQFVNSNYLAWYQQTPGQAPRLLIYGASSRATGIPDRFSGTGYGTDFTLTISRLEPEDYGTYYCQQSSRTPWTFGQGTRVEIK	%	91.2
M209-H09 (Fab, V domains shown) VH: EVQLLESGGGLVQPGGSLRLSCAASGFTFSHYLMTWVRQAPGKGLEWVSYISPSGGHTIYADSVKGRFTISRDNSKNTLYLQMNSLRAEDTAVYYCARVARGIAARSRTVYFDHWGQGTLVTVSS VL: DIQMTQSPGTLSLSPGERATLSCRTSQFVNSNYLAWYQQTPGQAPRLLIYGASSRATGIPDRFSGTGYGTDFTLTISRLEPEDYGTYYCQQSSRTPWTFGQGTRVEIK	%	85.3
M206-E02 (Fab, V domains shown) VH: EVQLLESGGGLVQPGGSLRLSCAASGFTFSEYMMMWVRQAPGKGLEWVSVISPSGGQTHYADSVKGRFTISRDNSKNTLYLQMNSLRAEDTAVYYCARVARGIAARSRTSYFDYWGQGTLVTVSS VL: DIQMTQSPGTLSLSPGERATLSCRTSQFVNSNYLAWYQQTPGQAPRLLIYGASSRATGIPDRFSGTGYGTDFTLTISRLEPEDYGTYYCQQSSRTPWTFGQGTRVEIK	%	77.6
M209-H03 (Fab, V domains shown) VH: EVQLLESGGGLVQPGGSLRLSCAASGFTFSHYLMTWVRQAPGKGLEWVSYISPSGGHTIYADSVKGRFTISRDNSKNTLYLQMNSLRAEDTAVYYCARVAQGIAARSRTTQFDYWGQGTLVTVSS VL: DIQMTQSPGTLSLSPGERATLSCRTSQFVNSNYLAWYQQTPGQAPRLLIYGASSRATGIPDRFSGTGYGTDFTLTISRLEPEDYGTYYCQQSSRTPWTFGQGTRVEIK	%	82.6
M205-B04 (Fab, V domains shown) VH: EVQLLESGGGLVQPGGSLRLSCAASGFTFSNYDMIWVRQAPGKGLEWVSSISSSGGTTKYADSVKGRFTISRDNSKNTLYLQMNSLRAEDTAVYYCARVARGIAARSRTSYFDYWGQGTLVTVSS VL: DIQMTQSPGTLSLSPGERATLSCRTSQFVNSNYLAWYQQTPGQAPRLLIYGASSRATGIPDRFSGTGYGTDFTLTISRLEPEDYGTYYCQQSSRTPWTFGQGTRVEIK	%	71.1
